In this section, each of the compounds is paired with its reported pIC50.
# tested_system: Human Nav1.8 (Homo sapiens)
# Construct: expressed in transfected cells; host or cells: HEK293
# Sequence (Q9Y5Y9 whole entry): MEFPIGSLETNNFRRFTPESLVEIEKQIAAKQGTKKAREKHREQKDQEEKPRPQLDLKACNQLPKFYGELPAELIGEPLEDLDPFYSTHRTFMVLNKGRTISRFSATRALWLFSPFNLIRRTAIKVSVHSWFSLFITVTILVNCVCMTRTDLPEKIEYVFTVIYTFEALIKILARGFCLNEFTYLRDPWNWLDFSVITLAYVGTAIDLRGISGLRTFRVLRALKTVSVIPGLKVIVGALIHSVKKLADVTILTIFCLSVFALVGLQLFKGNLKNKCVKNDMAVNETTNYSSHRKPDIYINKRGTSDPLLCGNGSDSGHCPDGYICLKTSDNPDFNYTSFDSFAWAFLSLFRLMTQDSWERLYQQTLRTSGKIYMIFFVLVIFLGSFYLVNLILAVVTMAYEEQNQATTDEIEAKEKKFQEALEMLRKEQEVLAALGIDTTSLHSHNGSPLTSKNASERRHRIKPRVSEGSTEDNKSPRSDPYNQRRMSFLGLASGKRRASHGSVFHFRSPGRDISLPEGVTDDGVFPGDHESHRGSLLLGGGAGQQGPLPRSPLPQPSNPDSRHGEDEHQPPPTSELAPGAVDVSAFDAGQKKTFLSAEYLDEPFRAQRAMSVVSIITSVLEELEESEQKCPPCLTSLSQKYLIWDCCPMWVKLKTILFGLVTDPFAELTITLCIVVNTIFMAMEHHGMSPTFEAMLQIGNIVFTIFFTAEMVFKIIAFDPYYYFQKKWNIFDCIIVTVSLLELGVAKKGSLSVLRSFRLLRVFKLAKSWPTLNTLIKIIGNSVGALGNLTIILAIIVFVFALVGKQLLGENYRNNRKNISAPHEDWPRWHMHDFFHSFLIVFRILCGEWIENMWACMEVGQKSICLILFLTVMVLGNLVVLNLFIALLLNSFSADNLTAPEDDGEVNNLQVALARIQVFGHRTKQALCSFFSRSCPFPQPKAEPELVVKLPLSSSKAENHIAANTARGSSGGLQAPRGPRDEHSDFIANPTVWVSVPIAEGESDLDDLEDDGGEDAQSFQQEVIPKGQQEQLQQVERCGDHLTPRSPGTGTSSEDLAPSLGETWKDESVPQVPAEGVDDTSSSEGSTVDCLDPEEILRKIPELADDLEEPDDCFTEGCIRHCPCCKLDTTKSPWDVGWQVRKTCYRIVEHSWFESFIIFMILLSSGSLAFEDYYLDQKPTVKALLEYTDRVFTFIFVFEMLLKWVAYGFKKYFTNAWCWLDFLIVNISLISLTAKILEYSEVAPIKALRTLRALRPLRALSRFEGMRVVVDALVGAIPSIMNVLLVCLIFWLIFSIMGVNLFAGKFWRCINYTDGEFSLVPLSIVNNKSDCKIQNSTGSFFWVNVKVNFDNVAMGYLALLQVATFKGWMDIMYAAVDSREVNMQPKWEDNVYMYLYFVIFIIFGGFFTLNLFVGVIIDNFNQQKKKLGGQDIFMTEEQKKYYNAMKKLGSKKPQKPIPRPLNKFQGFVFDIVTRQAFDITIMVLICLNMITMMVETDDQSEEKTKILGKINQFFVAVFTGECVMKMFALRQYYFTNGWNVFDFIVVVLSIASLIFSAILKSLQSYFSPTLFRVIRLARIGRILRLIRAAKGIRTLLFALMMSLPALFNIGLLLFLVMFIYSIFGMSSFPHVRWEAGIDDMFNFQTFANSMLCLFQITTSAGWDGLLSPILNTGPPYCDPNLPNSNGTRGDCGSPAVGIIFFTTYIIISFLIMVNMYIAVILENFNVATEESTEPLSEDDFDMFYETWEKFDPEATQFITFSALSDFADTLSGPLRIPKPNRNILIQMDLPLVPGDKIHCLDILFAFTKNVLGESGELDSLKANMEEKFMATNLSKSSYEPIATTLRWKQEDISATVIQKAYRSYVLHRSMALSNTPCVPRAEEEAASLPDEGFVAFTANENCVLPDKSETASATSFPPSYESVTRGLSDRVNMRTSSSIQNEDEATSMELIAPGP
# measurement_protocol: VIPR Assay for Nav1.8 Compounds (FRET membrane potential, deltamethrin opener)
# Assay type: cell-based
# condition_details: VIPR FRET membrane potential assay, deltamethrin opener; average of replicates; read-out: Nav1.8 IC50
Answer as the number alone; pIC50 is minus log10 of concentration in mol/L.

>>> test_result("Cn1nccc1C(=O)Nc1ccc(-c2ccccc2OC(F)F)c(N)n1 [Example 19]")
4.85
>>> test_result("Cn1nncc1C(=O)Nc1ccc(-c2ccccc2Cl)c(N)n1 [Example 82]")
5.03
>>> test_result("Cn1nccc1C(=O)Nc1ccc(-c2cc(O)cc(Cl)c2Cl)c(N)n1 [Example 177]")
5.89
>>> test_result("Cc1nocc1C(=O)Nc1ccc(-c2cc(OC(F)(F)F)ccc2F)c(N)n1 [Example 36]")
5.89
>>> test_result("Cn1nccc1C(=O)Nc1ccc(-c2ccc(OC(F)(F)F)c(F)c2)c(N)n1 [Example 121]")
5.00
>>> test_result("Cc1nonc1C(=O)Nc1ccc(-c2ccc(Cl)cc2Cl)c(N)n1 [Example 49]")
5.21

Continue with the next compound.
For this compound ( Nc1nc(NC(=O)c2conc2C(F)(F)F)ccc1-c1ccccc1OC(F)(F)F [Example 112] ), measured pIC50 is 6.03

Provenance of the data: patent US8134007B2
